Where do the numbers come from? From patent US20250154277A1.

# TARGET_OR_SYSTEM: T1, human 5T4-His protein (human, UniProt Q13641 32-355)
# T1 construct: also called recombinant 5T4 protein (human 5T4-his tag); human 5T4 protein; not shown: His tag
# T1 sequence (looked up): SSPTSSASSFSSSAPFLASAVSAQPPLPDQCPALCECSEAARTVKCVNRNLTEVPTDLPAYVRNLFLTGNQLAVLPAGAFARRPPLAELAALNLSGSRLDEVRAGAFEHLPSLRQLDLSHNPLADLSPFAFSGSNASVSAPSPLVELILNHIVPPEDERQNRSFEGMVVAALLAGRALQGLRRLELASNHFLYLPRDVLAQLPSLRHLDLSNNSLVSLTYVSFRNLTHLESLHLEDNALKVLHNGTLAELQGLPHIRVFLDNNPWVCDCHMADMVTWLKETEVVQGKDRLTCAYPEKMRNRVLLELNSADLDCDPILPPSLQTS
# ASSAY_NOTES: SPR Biacore, Protein A capture
In this section, each of the binders is paired with its reported kon.

{"BINDER": "Hu286B4-10 (antibody, V domains shown, humanized) VH: EVQLQESGPGLVKPSDTLSLTCAVSGYSISNNYYWNWIRQPPGKGLEWIGYITYDGSNNYNPSLKNRITMSRDTSKNQFSLKLSSVTAVDTAVYYCARGGGQLRFDYWGQGTTVTVSS VL: SIVMTQSPSSLSASVGDRVTITCKASQSVSNEVTWYQQKPGKSPKMLIYYASNRYTGVPDRFSGSGYGTDFTFTISSLQPEDIATYFCQQDYSSPWTFGGGTKVEIK", "kon": "106000 M⁻¹ s⁻¹"}

[ask] Item Hu286B4-3 (antibody, V domains shown, humanized) VH: EVQLQESGPGLVKPSDTLSLTCAVSGYSISNNYYWNWIRQPPGKGLEWIGYITYDGSNNYNPSLKNRVTMSRDTSKNQFSLKLSSVTAVDTAVYYCARGGGQLRFDYWGQGTTVTVSS VL: DIQMTQSPSSLSASVGDRVTITCKASQSVSNEVTWYQQKPGKAPKMLIYYASNRYTGVPDRFSGSGYGTDFTFTISSLQPEDIATYYCQQDYSSPWTFGGGTKVEIK has what recorded kon?
[reply] 93400 M⁻¹ s⁻¹

[ask] Also, Hu286B4-15 (antibody, V domains shown, humanized) VH: EVQLQESGPGLVKPSDTLSLTCAVSGYSISNNYYWNWIRQPPGKGLEWMGYITYDGSNNYNPSLKNRITVSRDTSKNQFSLKLSSVTAVDTAVYYCARGGGQLRFDYWGQGTTVTVSS VL: SIVMTQSPSSLSASVGDRVTITCKASQSVSNEVTWYQQKPGKSPKMLIYYASNRYTGVPDRFSGSGYGTDFTFTISSLQPEDIATYFCQQDYSSPWTFGGGTKVEIK please.
[reply] 110000 M⁻¹ s⁻¹

[ask] Also, Hu286B4-8 (antibody, V domains shown, humanized) VH: EVQLQESGPGLVKPSDTLSLTCAVSGYSISNNYYWNWIRQPPGKGLEWIGYITYDGSNNYNPSLKNRITMSRDTSKNQFSLKLSSVTAVDTAVYYCARGGGQLRFDYWGQGTTVTVSS VL: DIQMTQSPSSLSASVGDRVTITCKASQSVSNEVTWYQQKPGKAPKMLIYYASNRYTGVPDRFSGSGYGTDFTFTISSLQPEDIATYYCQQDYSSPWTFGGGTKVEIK please.
[reply] 94600 M⁻¹ s⁻¹

[ask] Also, Hu286B4-18 (antibody, V domains shown, humanized) VH: EVQLQESGPGLVKPSDTLSLTCAVSGYSITNNYYWNWIRQPPGKGLEWMGYITYDGSNNYNPSLKNRITVSRDTSKNQFSLKLSSVTAVDTAVYYCTRGGGQLRFDYWGQGTTVTVSS VL: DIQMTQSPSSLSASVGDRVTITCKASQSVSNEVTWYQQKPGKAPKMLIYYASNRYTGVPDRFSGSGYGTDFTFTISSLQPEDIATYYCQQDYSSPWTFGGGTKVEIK please.
[reply] 113000 M⁻¹ s⁻¹

[ask] Also, Hu286B4-5 (antibody, V domains shown, humanized) VH: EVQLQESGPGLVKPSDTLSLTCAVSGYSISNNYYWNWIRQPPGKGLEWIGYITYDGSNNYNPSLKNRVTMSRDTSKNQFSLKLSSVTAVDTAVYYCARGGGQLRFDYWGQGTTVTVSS VL: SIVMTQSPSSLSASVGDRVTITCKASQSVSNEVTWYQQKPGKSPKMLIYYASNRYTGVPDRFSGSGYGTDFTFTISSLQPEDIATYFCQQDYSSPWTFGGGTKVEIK please.
[reply] 106000 M⁻¹ s⁻¹

[ask] Also, Hu286B4-13 (antibody, V domains shown, humanized) VH: EVQLQESGPGLVKPSDTLSLTCAVSGYSISNNYYWNWIRQPPGKGLEWMGYITYDGSNNYNPSLKNRITVSRDTSKNQFSLKLSSVTAVDTAVYYCARGGGQLRFDYWGQGTTVTVSS VL: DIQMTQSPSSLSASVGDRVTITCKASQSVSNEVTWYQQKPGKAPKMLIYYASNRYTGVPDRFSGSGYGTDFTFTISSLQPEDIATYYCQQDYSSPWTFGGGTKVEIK please.
[reply] 95500 M⁻¹ s⁻¹

[ask] Also, 286B4 chimeric antibody (antibody, V domains shown, chimeric mAb; also called 284B4-C) VH: DVQLHESGPGLVKPSQSLSLTCSVTGYSITNNYYWNWIRQFPGNNLEWMGYITYDGSNNYNPSLKNRISVTRDTSKNQFFLKLSSVTTEDTATYYCTRGGGQLRFDYWGQGTTLTVSS VL: SIVMTQTPKFLIVSAGDRVTITCKASQSVSNEVTWYQQKPGQSPKMLIYYASNRYTGVPDRFTGSGYGTDFTFTINTVQAEDLAIYFCQQDYSSPWTFGGGTKLEIK please.
[reply] 90900 M⁻¹ s⁻¹
